Biological target: Recombinant human KRAS protein containing the G12C amino acid substitution (Homo sapiens (Human), UniProt P01116, G12C)
Sequence (P01116 other isoform, or with tags, fused parts or gaps G12C): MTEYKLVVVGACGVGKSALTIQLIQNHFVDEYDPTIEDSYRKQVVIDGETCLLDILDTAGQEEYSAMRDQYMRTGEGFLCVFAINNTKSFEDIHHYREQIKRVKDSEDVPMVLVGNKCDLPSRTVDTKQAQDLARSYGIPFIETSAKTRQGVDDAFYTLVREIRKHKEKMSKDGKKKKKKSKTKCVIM
Experiment: HTRF nucleotide exchange assay, KRAS G12C
Details: 180 minute incubation with compound at room temperature; at least two independent replicates; read-out: KRAS G12C HTRF NEA IC50
Recorded metric: IC50

C=CC(=O)N1CC2(CC(c3nc(-c4ccc5c(cnn5C)c4)c(-c4cc(Cl)cc5[nH]ncc45)n3C)C2)C1 | ≤ 1000 nM
C=CC(=O)N1CC2(CC(c3nc(-c4ccc5c(cnn5C)c4)c(-c4cccc5sc(N)c(C#N)c45)n3C)C2)C1 | 1000 to 10000 nM
C=CC(=O)N1CC2(CC(c3nc(-c4ccc5c(cnn5C)c4)c(-c4cc(O)cc5ccccc45)n3C)C2)C1 | ≤ 1000 nM

Give the measured IC50 for C=CC(=O)N1CC2(CC(c3nc(-c4cccnc4)c(-c4c(C)ccc5[nH]ncc45)n3C)C2)C1
≥ 10000 nM

Give the measured IC50 for C=CC(=O)N1CC2(CC(c3nc(-c4cnn(CC)c4)c(-c4c(C)ccc5[nH]ncc45)n3C)C2)C1
≥ 10000 nM

Give the measured IC50 for C=CC(=O)N1CC2(CC(c3nc(-c4ccc(N5CCOCC5)cc4)c(-c4cc(O)cc5ccccc45)n3C)C2)C1
≤ 1000 nM

Give the measured IC50 for C=CC(=O)N1CC2(CC(c3nc(-c4ccc(CN5CCN(C)CC5)cc4)c(-c4cc(O)cc5ccccc45)n3C)C2)C1
≤ 1000 nM

Give the measured IC50 for C=CC(=O)N1CC2(CC(c3nc(-c4ccccc4)c(-c4c(C)ccc5[nH]ncc45)n3C)C2)C1
1000 to 10000 nM

----------
Target: Recombinant human KRAS protein containing the G12C amino acid substitution (Homo sapiens (Human), UniProt P01116, G12C)
Assay: HTRF nucleotide exchange assay, KRAS G12C
Settings: 180 minute incubation with compound at room temperature; at least two independent replicates; read-out: KRAS G12C HTRF NEA IC50
pIC50: −log10 of the molar value.
Recorded metric: pIC50

C=CC(=O)N1CC2(CC(c3nc(-c4ccc5c(cnn5C)c4)c(-c4c(C)ccc5[nH]ncc45)n3C)C2)C1 | ≥ 6.00
C=CC(=O)N1CC2(CC(c3nc(-c4ccc5c(c4)c(C)nn5C)c(-c4c(C)ccc5[nH]ncc45)n3C)C2)C1 | 5.00 to 6.00

Give the measured pIC50 for C=CC(=O)N1CC2(CC(c3nc(-c4ccc(C(=O)NCCN(C)C)cc4)c(-c4c(C)ccc5[nH]ncc45)n3C)C2)C1
5.00 to 6.00

----------
Molecular target: Recombinant human KRAS protein containing the G12C amino acid substitution (Homo sapiens (Human), UniProt P01116, G12C)
Assay: HTRF nucleotide exchange assay, KRAS G12C
Conditions: 180 minute incubation with compound at room temperature; at least two independent replicates; read-out: KRAS G12C HTRF NEA IC50
# maps each entry to its IC50

Here is how some compounds turned out for IC50.
C=CC(=O)N1CC2(CC(c3nc(-c4cccc(N5CCOCC5)c4)c(-c4c(C)ccc5[nH]ncc45)n3C)C2)C1 | 1 to 10 µM
C=CC(=O)N1CC2(CC(c3nc(-c4ccc5c(cnn5C)c4C)c(-c4c(C)ccc5[nH]ncc45)n3C)C2)C1 | 1 to 10 µM
C=CC(=O)N1CC2(CC(c3nc(-c4ccc(OCC(=O)N5CCOCC5)cc4)c(-c4c(C)ccc5[nH]ncc45)n3C)C2)C1 | 1 to 10 µM
C=CC(=O)N1CC2(CC(c3nc(-c4c(C)ccc5[nH]ncc45)c(-c4ccc5c(cnn5C)c4)n3C)C2)C1 | ≥ 10 µM
C=CC(=O)N1CC2(CC(c3nc(-c4ccc5ocnc5c4)c(-c4c(C)ccc5[nH]ncc45)n3C)C2)C1 | 1 to 10 µM
C=CC(=O)N1CC2(CC(c3nc(-c4ccc(N5CCOCC5)cc4)c(-c4c(C)ccc5[nH]ncc45)n3C)C2)C1 | ≤ 1 µM

Now consider a different compound.
Give the measured IC50 for C=CC(=O)N1CC2(CC(c3nc(-c4cnn(CCN5CCOCC5)c4)c(-c4c(C)ccc5[nH]ncc45)n3C)C2)C1
≥ 10 µM

----------
Target: Recombinant human KRAS protein containing the G12C amino acid substitution (Homo sapiens (Human), UniProt P01116, G12C)
Experiment: HTRF nucleotide exchange assay, KRAS G12C
Conditions: 180 minute incubation with compound at room temperature; at least two independent replicates; read-out: KRAS G12C HTRF NEA IC50
# maps each entry to its IC50

Give the measured IC50 for C=CC(=O)N1CC2(CC(c3nc(-c4ccc5nn(C)cc5c4)c(-c4c(C)ccc5[nH]ncc45)n3C)C2)C1
≤ 1000 nM

----------
Biological target: Recombinant human KRAS protein containing the G12C amino acid substitution (Homo sapiens (Human), UniProt P01116, G12C)
Experiment: HTRF nucleotide exchange assay, KRAS G12C
Assay type: biochemical
Settings: 180 minute incubation with compound at room temperature; at least two independent replicates; read-out: KRAS G12C HTRF NEA IC50
pIC50: −log10 of the molar value.
# maps each entry to its pIC50

Here is how some compounds turned out for pIC50.
C=CC(=O)N1CC2(CC(c3nc(-c4ccc(-n5cnc(C6CC6)c5)cc4)c(-c4c(C)ccc5[nH]ncc45)n3C)C2)C1 [Example 8] | 5.00 to 6.00
C=CC(=O)N1CC2(CC(c3nc(-c4ccc(C(=O)NCC(F)(F)F)c(OC)c4)c(-c4c(C)ccc5[nH]ncc45)n3C)C2)C1 [Example 23] | 5.00 to 6.00
C=CC(=O)N1CC2(CC(c3nc(-c4ccc(N5CCOCC5)cc4)c(-c4cc(O)cc5ccccc45)n3CC)C2)C1 [Example 33] | ≥ 6.00

Give the measured pIC50 for C=CC(=O)N1CC2(CC(c3nc(-c4ccc5c(cnn5C)c4)c(-c4cc(C#N)cc5[nH]ncc45)n3C)C2)C1 [Example 40]
5.00 to 6.00

Give the measured pIC50 for C=CC(=O)N1CC2(CC(c3nc(-c4cn(C)nc4C)c(-c4c(C)ccc5[nH]ncc45)n3C)C2)C1 [Example 12]
≤ 5.00

Give the measured pIC50 for C=CC(=O)N1CC2(CC(c3nc(-c4ccc(CN5CCOCC5)cc4)c(-c4cc(O)cc5ccccc45)n3C)C2)C1 [Example 30]
≥ 6.00

----------
Molecular target: Recombinant human KRAS protein containing the G12C amino acid substitution (Homo sapiens (Human), UniProt P01116, G12C)
Assay: HTRF nucleotide exchange assay, KRAS G12C
Assay type: biochemical
Details: 180 minute incubation with compound at room temperature; at least two independent replicates; read-out: KRAS G12C HTRF NEA IC50
pIC50: −log10 of the molar value.
Recorded metric: pIC50

Give the measured pIC50 for C=CC(=O)N1CC2(CC(c3nc(-c4ccc5c(cnn5C)c4)c(-c4cc(O)ccc4C(F)(F)F)n3C)C2)C1 [Example 39]
≥ 6.00

Give the measured pIC50 for C=CC(=O)N1CC2(CC(c3nc(-c4ccc(C(=O)NCCN5CCOCC5)cc4)c(-c4cc(O)cc5ccccc45)n3C)C2)C1 [Example 37]
≥ 6.00

Give the measured pIC50 for C=CC(=O)N1CC2(CC(c3nc(-c4ccc5c(cnn5C)c4)c(-c4c(C)c(C)cc5[nH]ncc45)n3C)C2)C1 [Example 38]
≥ 6.00

Give the measured pIC50 for C=CC(=O)N1CC2(CC(c3nc(-c4ccc5c(cnn5C)c4)c(-c4c(C)ccc5[nH]ncc45)n3CC)C2)C1 [Example 24]
≥ 6.00

Give the measured pIC50 for C=CC(=O)N1CC2(CC(c3nc(-c4ccc5c(c4)OCCN5C)c(-c4c(C)ccc5[nH]ncc45)n3C)C2)C1 [Example 18]
≥ 6.00

----------
# maps each entry to its IC50
Target: Recombinant human KRAS protein containing the G12C amino acid substitution (Homo sapiens (Human), UniProt P01116, G12C)
Assay: HTRF nucleotide exchange assay, KRAS G12C
Assay type: biochemical
Settings: 180 minute incubation with compound at room temperature; at least two independent replicates; read-out: KRAS G12C HTRF NEA IC50

Here is how some compounds turned out for IC50.
C=CC(=O)N1CC2(CC(c3nc(-c4ccc5c(c4)nc(C)n5C)c(-c4c(C)ccc5[nH]ncc45)n3C)C2)C1 | 1 to 10 µM
C=CC(=O)N1CC2(CC(c3nc(-c4ccc5nn(C)cc5c4)c(-c4cc(O)cc5ccccc45)n3C)C2)C1 | ≤ 1 µM
C=CC(=O)N1CC2(CC(c3nc(-c4ccc5c(cnn5C)c4)c(-c4cc(O)cc5cccc(Cl)c45)n3C)C2)C1 | ≤ 1 µM

Give the measured IC50 for C=CC(=O)N1CC2(CC(c3nc(-c4ccc(OCC(=O)N(C)C)cc4)c(-c4c(C)ccc5[nH]ncc45)n3C)C2)C1
1 to 10 µM

Give the measured IC50 for C=CC(=O)N1CC2(CC(c3nc(-c4ccc5cnn(C)c5c4)c(-c4c(C)ccc5[nH]ncc45)n3C)C2)C1
1 to 10 µM

Give the measured IC50 for C=CC(=O)N1CC2(CC(c3nc(-c4ccc(OC)cc4F)c(-c4c(C)ccc5[nH]ncc45)n3C)C2)C1
1 to 10 µM

Give the measured IC50 for C=CC(=O)N1CC2(CC(c3nc(-c4cnn(CCOC)c4)c(-c4c(C)ccc5[nH]ncc45)n3C)C2)C1
≥ 10 µM

Give the measured IC50 for C=CC(=O)N1CC2(CC(c3nc(-c4ccc5c(cnn5C)c4)c(-c4cc(O)cc5ccccc45)n3CC)C2)C1
≤ 1 µM
